Can you tell me pIC50 for the items I'm about to list?
ASSAY SYSTEM: DNA polymerase theta (POLQ) (2-894)
Construct: 2-894
TEST DETAILS: ATPase Assay
Numbers only, as −log10 of the molar value.

// for each compound below, give its pIC50
1. COc1cnc(Cl)cc1-c1cc(C)ncc1C(=O)Nc1nc2c(s1)CN(C(=O)c1cccn3cncc13)C2
2. COc1ncc(Cl)cc1-c1cc(C)ncc1C(=O)Nc1nc2c(s1)CN(C(=O)c1cccc(C(F)F)n1)C2
3. COc1cnc(Cl)cc1-c1cc(C)ncc1C(=O)Nc1nc2c(s1)CN(C(=O)c1cncn1C1CC1)C2
4. COc1cnc(Cl)cc1-c1cc(C)ncc1C(=O)Nc1nc2c(s1)CN(C(=O)c1cnc(OC)c(C(F)F)n1)C2
5. COc1cnc(Cl)cc1-c1cc(C)ncc1C(=O)Nc1nc2c(s1)CN(C(=O)c1cnc(C(F)F)cc1C)C2
6. COc1cnc(Cl)cc1-c1cc(C)ncc1C(=O)Nc1nc2c(s1)CN(C(=O)C1CC3(CC(C)C3)C1)C2 (stereo unspecified)

[8.10, 7.49, 8.10, 8.10, 8.10, 8.10]

----------
Provide the recorded IC50 for the entries that follow.
ASSAY SYSTEM: DNA polymerase theta (POLQ) (2-894)
Construct: 2-894
TEST DETAILS: ATPase Assay
One number for each entry, in nM.

Worked examples follow.
COc1ccc(C#N)cc1-c1cc(C)ncc1C(=O)Nc1nc2c(s1)CN(C(=O)c1cccc(Cl)c1OC)C2 ... 8
COc1cnc(Cl)cc1-c1cc(C)ncc1C(=O)Nc1nc2c(s1)CN(C(=O)C1CC3(CC(C#N)C3)C1)C2 (stereo not given) ... 8
COc1ccc(C#N)cc1-c1cc(C)ncc1C(=O)Nc1nc2c(s1)CN(C(=O)c1ccc(OC(F)F)cc1)C2 ... 8
COc1cnc(Cl)cc1-c1cc(C)ncc1C(=O)Nc1nc2c(s1)CN(C(=O)C1CC3(CC(F)C3)C1)C2 (stereo not given) ... 8
COc1cnc(Cl)cc1-c1cc(C)ncc1C(=O)Nc1nc2c(s1)CN(C(=O)c1ncc(C(F)F)cn1)C2 ... 8
COc1ccc(C#N)cc1-c1cc(C)ncc1C(=O)Nc1nc2c(s1)CN(C(=O)c1ccc(C(F)F)cc1)C2 ... 8

Provide the reported IC50 of each entry below, same order.
1. COc1cnc(Cl)cc1-c1cc(C)ncc1C(=O)Nc1nc2c(s1)CN(C(=O)c1nccnc1OC)C2
2. COc1cnc(Cl)cc1-c1cc(C)ncc1C(=O)Nc1nc2c(s1)CN(C(=O)c1cnc(C)c(C)n1)C2

[8, 8]

Need IC50 for each of these molecules.
1. COc1cnc(Cl)cc1-c1cc(C)ncc1C(=O)Nc1nc2c(s1)CN(C(=O)c1cnc(C)n1C)C2
2. COc1cnc(Cl)cc1-c1cc(C)ncc1C(=O)Nc1nc2c(s1)CN(C(=O)c1cc(C)nc(C(F)F)n1)C2
3. COc1ccc(C(=O)N2Cc3nc(NC(=O)c4cnc(C)cc4-c4cc(Cl)ncc4OC)sc3C2)nn1
4. COc1cnc(Cl)cc1-c1cc(C)ncc1C(=O)Nc1nc2c(s1)CN(C(=O)c1ccc(C(F)F)nn1)C2
5. COc1ccc(C#N)cc1-c1cc(C)ncc1C(=O)Nc1nc2c(s1)CN(C(=O)c1cccc(C(F)F)n1)C2
6. COc1cc2nn(C)cc2cc1-c1cc(C)ncc1C(=O)Nc1nc2c(s1)CN(C(=O)c1cccnc1OC)C2
7. COc1cnc(C(=O)N2Cc3nc(NC(=O)c4cnc(C)cc4-c4cc(Cl)ncc4OC)sc3C2)c(OC)n1
8. COc1ccc2oc(C(=O)N3Cc4nc(NC(=O)c5cnc(C)cc5-c5cc(Cl)ncc5OC)sc4C3)nc2c1

1. 100
2. 8
3. 32.5
4. 8
5. 32.5
6. 8
7. 8
8. 8

Please go through the list and note IC50 for each molecule.
1. COc1cnc(Cl)cc1-c1cc(C)ncc1C(=O)Nc1nc2c(s1)CN(C(=O)c1cc(Cl)cc(C)n1)C2
2. COc1cnc(Cl)cc1-c1cc(C)ncc1C(=O)Nc1nc2c(s1)CN(C(=O)c1nc(C(F)F)ccc1OC)C2
3. COc1cnc(Cl)cc1-c1cc(C)ncc1C(=O)Nc1nc2c(s1)CN(C(=O)c1cnc(C(F)(F)F)nc1C)C2
4. COc1cc(Cl)ccc1C(=O)N1Cc2nc(NC(=O)c3cnc(C)cc3-c3cc(C#N)ccc3OC)sc2C1

1: 8; 2: 8; 3: 8; 4: 8

Hi team, please reply with IC50 for each item in this list.
1. COc1ncc(C#N)cc1-c1cc(C)ncc1C(=O)Nc1nc2c(s1)CN(C(=O)c1ccc(C(F)F)cn1)C2
2. COc1cnc(Cl)cc1-c1cc(C)ncc1C(=O)Nc1nc2c(s1)CN(C(=O)c1c(Cl)c(C)nn1C)C2
3. COc1cnc(Cl)cc1-c1cc(C)ncc1C(=O)Nc1nc2c(s1)CN(S(=O)(=O)c1ccccn1)C2
4. COc1cnc(Cl)cc1-c1cc(C)ncc1C(=O)Nc1nc2c(s1)CN(C(=O)C1CCCC(OC(F)(F)F)C1)C2 (racemic)
5. COc1cnc(Cl)cc1-c1cc(C)ncc1C(=O)Nc1nc2c(s1)CN(C(=O)c1nccnc1C)C2

32.5
8
8
8
8

The measured values listed here are drawn from BindingDB's records for patent US20250230171.
